Cited source for all entries: patent US9434711B2

Biological target: UniProt Q1A7N1
Sequence (Q1A7N1 1-1104): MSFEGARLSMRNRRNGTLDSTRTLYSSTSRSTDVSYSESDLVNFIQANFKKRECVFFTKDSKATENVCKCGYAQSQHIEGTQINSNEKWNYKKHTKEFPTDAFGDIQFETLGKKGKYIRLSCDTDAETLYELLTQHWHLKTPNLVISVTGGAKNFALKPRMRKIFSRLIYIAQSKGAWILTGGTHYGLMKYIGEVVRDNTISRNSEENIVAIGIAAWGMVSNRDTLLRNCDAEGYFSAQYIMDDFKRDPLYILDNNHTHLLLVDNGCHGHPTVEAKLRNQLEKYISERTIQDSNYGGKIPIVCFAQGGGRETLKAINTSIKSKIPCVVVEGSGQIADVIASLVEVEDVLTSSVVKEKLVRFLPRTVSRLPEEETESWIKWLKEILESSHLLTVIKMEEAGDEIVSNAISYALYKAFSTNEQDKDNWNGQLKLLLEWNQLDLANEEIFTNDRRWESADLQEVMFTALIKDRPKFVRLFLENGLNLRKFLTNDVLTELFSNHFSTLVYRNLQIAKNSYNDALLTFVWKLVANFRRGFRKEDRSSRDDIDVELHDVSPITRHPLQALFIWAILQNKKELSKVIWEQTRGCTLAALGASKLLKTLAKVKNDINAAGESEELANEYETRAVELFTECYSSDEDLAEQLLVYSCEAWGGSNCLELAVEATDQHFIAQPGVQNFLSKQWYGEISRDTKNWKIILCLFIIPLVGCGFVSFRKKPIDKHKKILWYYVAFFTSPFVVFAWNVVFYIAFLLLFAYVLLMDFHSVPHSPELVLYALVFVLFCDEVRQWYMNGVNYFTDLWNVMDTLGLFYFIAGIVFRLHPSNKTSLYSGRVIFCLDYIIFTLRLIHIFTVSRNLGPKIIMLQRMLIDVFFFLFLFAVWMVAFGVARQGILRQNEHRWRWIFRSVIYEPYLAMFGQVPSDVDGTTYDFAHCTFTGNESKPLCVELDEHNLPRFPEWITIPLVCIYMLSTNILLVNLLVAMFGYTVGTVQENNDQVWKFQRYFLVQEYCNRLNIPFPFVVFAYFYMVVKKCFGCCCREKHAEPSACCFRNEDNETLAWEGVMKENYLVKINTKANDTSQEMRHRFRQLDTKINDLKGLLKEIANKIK
Assay: In Vitro Canine TRPM8 Functional Assay (Ca2+ fluorescence, icilin activation)
Type: cell-based
Conditions: HEK293 cells stably expressing canine TRPM8; icilin activation; eight-point dose-response; read-out: IC50
parameter: pIC50
On this scale, pIC50 is minus log10 of a concentration expressed in M (mol/L).

These recorded examples may help you get a feel for the data.
molecule="CCCCN(c1sc2ccccc2c1C(=O)N(C)C)S(=O)(=O)c1ccc(C(=O)OC)cc1 [Compound 467]" meas_value=7.70
molecule="CS(=O)(=O)N(Cc1ccc(F)c(C(F)(F)F)c1)c1sc2ccccc2c1C=O [Compound 208]" meas_value=7.92
molecule="CC(C)(O)c1c(N(CCC(F)(F)F)S(=O)(=O)c2ccc(C(=O)[O-])cc2)sc2ccccc12.[Na+] [Compound 505]" meas_value=7.62
molecule="CC(=O)c1ccc(S(=O)(=O)N(Cc2ccc(F)c(C(F)(F)F)c2)c2sc3ccccc3c2C)cc1 [Compound 352]" meas_value=8.07
molecule="O=C(O)c1ccc(S(=O)(=O)N(C[C@@H]2C[C@@H]3CC[C@H]2C3)c2sc3ccccc3c2Br)cc1 [Compound 439]" meas_value=8.70

Need pIC50 of Cc1c(N(Cc2ccc(F)c(C(F)(F)F)c2)S(C)(=O)=O)sc2ccccc12 [Compound 368] , thanks. 7.74

Need pIC50 of Cc1c(N(Cc2ccc(F)c(C(F)(F)F)c2)S(=O)(=O)c2cnc(Cl)c(Cl)c2)sc2ccccc12 [Compound 331] , thanks. 7.05

Need pIC50 of CCCCN(c1sc2cc(C(F)(F)F)ccc2c1C)S(=O)(=O)c1ccc(C(=O)O)cc1 [Compound 558] , thanks. 7.00

Need pIC50 of Cc1c(N(Cc2ccc(S(C)(=O)=O)cc2)S(=O)(=O)c2ccc(C(=O)O)cc2)sc2ccccc12 [Compound 492] , thanks. 7.21

Need pIC50 of CN(C)c1ccc(S(=O)(=O)N(CCC2CC2)c2cc3ccccc3s2)cc1 [Compound 689] , thanks. 7.28

Need pIC50 of Cc1c(N(Cc2ccc(F)c(C(F)(F)F)c2)S(=O)(=O)c2ccc(-c3nnn[nH]3)cc2)sc2ccccc12 [Compound 542] , thanks. 8.64
